Molecular target: human neutrophil elastase (HNE) (Homo sapiens, UniProt P08246)
Sequence (P08246 30-247 limits assumed): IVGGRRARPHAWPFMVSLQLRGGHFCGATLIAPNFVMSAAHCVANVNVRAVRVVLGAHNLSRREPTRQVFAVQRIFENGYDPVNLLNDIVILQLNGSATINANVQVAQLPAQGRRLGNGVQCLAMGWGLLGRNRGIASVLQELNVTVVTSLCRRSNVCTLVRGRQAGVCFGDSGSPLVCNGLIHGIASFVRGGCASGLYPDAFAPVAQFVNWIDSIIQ
Experiment: HNE enzyme assay (human neutrophil elastase enzyme activity assay)
Conditions: human leukocyte elastase 0.00072 U/mL; substrate MeOSuc-Ala-Ala-Pro-Val-AMC 100 μM; 25° C. for 30 minutes; at least two separate experiments; read-out: HNE inhibition (HNE enzyme inhibition, IC50 values)
observedProperty: IC50

Cn1c(-c2ccnn2-c2ccc(C#N)cc2)c(C(=O)NC2(C(=O)NCC[N+](C)(C)C)CCCC2)c(=O)n1-c1cccc(C(F)(F)F)c1 | < 1 nM
Cn1c(-c2ccnn2-c2ccc(C#N)cc2)c(C(=O)NCCC[N+](C)(C)C)c(=O)n1-c1cccc(C(F)(F)F)c1 | 1 to 10 nM
C[C@H](NC(=O)c1c(-c2ccnn2-c2ccc(C#N)cc2)n(C)n(-c2cccc(C(F)(F)F)c2)c1=O)C(=O)OCC1CC[N+](C)(C)CC1 | < 1 nM
Cn1c(-c2ccnn2-c2ccc(C#N)cc2)c(C(=O)N[C@H]2C[C@H](C(=O)NCC[N+](C)(C)C)C2)c(=O)n1-c1cccc(C(F)(F)F)c1 | < 1 nM

Query: Item under review: `Cn1c(-c2ccnn2-c2ccc(C#N)cc2)c(C(=O)NC[C@H]2CC[C@H]([N+](C)(C)C)CC2)c(=O)n1-c1cccc(C(F)(F)F)c1` . Reported IC50?
Reply: 1 to 10 nM
